details: in n-butanol, 293.15 K
experimental_readout: solubility (mole fraction)
One number for each entry.

Inquiry: What solubility (mole fraction) value was documented for this molecule, OCCCCCCO ?
Reply text: 0.479

====

settings: in methanol, 288.15 K
experimental_readout: solubility (mole fraction)

Inquiry: What solubility (mole fraction) value was documented for this compound, OCCCCCCO ?
Reply text: 0.428

====

details: in DMAc, 283.15 K
experimental_readout: solubility (mole fraction)
Numbers only.

Inquiry: What solubility (mole fraction) value was documented for this compound, OCCCCCCO ?
Reply text: 0.0205

====

settings: in methanol, 283.15 K
experimental_readout: solubility (mole fraction)
Answers are plain numbers.

Inquiry: What solubility (mole fraction) value was documented for this molecule, OCCCCCCO ?
Reply text: 0.365

====

conditions: in DMAc, 288.15 K
experimental_readout: solubility (mole fraction)
One number for each entry.

Inquiry: What solubility (mole fraction) value was documented for this molecule, OCCCCCCO ?
Reply text: 0.0298

====

settings: in DMAc, 293.15 K
experimental_readout: solubility (mole fraction)

Inquiry: What solubility (mole fraction) value was documented for this molecule, OCCCCCCO ?
Reply text: 0.0469

====

conditions: in methanol, 298.15 K
experimental_readout: solubility (mole fraction)
Answers are plain numbers.

Inquiry: What solubility (mole fraction) value was documented for this molecule, OCCCCCCO ?
Reply text: 0.585

====

conditions: in n-butanol, 288.15 K
experimental_readout: solubility (mole fraction)
Numbers only.

Inquiry: What solubility (mole fraction) value was documented for this compound, OCCCCCCO ?
Reply text: 0.389

====

settings: in n-butanol, 283.15 K
experimental_readout: solubility (mole fraction)
Numbers only.

Inquiry: What solubility (mole fraction) value was documented for this molecule, OCCCCCCO ?
Reply text: 0.316

====

conditions: in n-butanol, 303.15 K
experimental_readout: solubility (mole fraction)
Give bare numbers.

Inquiry: What solubility (mole fraction) value was documented for this compound, OCCCCCCO ?
Reply text: 0.689

====

conditions: in DMAc, 303.15 K
experimental_readout: solubility (mole fraction)
Give bare numbers.

Inquiry: What solubility (mole fraction) value was documented for this molecule, OCCCCCCO ?
Reply text: 0.0939

====

conditions: in methanol, 303.15 K
experimental_readout: solubility (mole fraction)
Numbers only.

Inquiry: What solubility (mole fraction) value was documented for this molecule, OCCCCCCO ?
Reply text: 0.698
